Reported cAMP Max by item:
Biological target: T1, human parathyroid hormone receptor 1, wild-type (hPTHR-1) (human, UniProt Q03431 27-593)
T1 sequence (looked up): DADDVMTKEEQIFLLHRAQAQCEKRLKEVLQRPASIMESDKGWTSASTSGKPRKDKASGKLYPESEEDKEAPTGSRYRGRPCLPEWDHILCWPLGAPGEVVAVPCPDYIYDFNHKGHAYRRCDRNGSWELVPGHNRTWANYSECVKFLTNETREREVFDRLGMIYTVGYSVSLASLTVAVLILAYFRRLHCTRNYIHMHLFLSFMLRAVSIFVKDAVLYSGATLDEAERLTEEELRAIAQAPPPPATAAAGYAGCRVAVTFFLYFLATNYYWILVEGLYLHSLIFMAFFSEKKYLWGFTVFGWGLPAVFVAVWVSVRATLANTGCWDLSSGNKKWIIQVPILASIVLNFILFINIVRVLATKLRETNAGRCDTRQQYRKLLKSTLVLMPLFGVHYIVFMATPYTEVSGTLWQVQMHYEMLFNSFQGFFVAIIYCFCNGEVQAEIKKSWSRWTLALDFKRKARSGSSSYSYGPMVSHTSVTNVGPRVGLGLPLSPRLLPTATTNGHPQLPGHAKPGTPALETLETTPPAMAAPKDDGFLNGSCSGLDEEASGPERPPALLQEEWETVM
Assay: cell-based or functional assay
Non-standard residues stand in square brackets, D forms with d. No end group written: not given here. β3hW = N[C@H](CC(=O)O)Cc1c[nH]c2ccccc12; β3hE = N[C@@H](CCC(=O)O)CC(=O)O; β3hF = N[C@H](CC(=O)O)Cc1ccccc1; β3hK = NCCCC[C@H](N)CC(=O)O; β3hM = CSCC[C@H](N)CC(=O)O; β3hD = NC(CC(=O)O)CC(=O)O

| binder | cAMP Max |
| --- | --- |
| SVSEIQLMHNLGKWLNSMERVEWLRKKLQDVHNF-NH2 (not fully specified (residue 14); printed as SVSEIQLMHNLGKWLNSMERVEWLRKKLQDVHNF-NH2; also: seven β3 residues, positions not given here in text, also called α/β-peptide D7) [D7] | 184 cps × 10^-3 |
| SVSEIQLMHNLGK[β3hW]LNS[β3hM]ERV[β3hE]WLR[β3hK]KLQ[β3hD]VHN[β3hF]-NH2 (also called α/β-peptide D6) [D6] | 189 cps × 10^-3 |
| SVSEIQLMHNLGKHLNSMERVEWLRKKLQDVQNF-NH2 (not fully specified (residue 32); printed as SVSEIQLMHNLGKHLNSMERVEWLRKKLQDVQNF-NH2; also: three β3 residues, positions not given here in text, also called α/β-peptide B3) [B3] | 234 cps × 10^-3 |
| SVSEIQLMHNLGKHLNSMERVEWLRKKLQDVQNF-NH2 (not fully specified (residues 20, 24, 28, 32); printed as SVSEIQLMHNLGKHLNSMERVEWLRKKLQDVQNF-NH2; also: five β3 residues, positions not given here in text, also called α/β-peptide B5) [B5] | 212 cps × 10^-3 |
